Biological target: T1, CRBN, Q96SW2;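 also: pooled lentiviral library of zinc finger degron-EGFP fusions in mCherry-positive Jurkat cells, FACS-sorted after compound exposure, with degron abundance counted by next-generation sequencing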
T1 chain: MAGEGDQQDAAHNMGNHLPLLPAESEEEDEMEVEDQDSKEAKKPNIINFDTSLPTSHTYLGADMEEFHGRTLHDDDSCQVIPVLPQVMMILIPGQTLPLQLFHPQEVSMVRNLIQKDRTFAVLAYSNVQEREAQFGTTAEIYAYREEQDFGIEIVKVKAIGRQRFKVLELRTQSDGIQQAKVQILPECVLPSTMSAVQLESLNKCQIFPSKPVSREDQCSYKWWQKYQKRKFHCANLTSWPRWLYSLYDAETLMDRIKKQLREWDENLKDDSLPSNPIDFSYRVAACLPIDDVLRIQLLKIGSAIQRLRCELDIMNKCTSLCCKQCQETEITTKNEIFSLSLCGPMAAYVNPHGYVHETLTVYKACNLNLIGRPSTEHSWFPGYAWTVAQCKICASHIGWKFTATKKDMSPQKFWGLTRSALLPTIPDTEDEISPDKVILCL
Experiment: log2 fold change of degron read counts, EGFP-low vs EGFP+ sorted cells (limma voom), compound-induced degradation; higher = more compound-induced degradation of the degron-EGFP fusion; degrons are variants of IKZF1/3 zinc finger 2; compound dose not given here
Settings: Jurkat; 18 h; compound: compound 19 (5-tert-butyl-thalidomide)
Whole data set: some 8,300 sequences, median “log2 fold change of degron read counts, EGFP-low vs EGFP+ sorted cells (limma voom), compound-induced degradation” near -1.1, cut for the highest 2% near 3.2. This excerpt belongs to a sample that is enriched for the highest values.
MEASUREMENT NAME: log2 fold change of degron read counts

> print(dat)
                                   sequence  experimental.value
1  FACPICGAHFTQKGNLLRHIKL [46F_47A_49P_50I_52G_53A_54H_55F_67L_, Q9UKT9]                3.08
2  FSCEICGADFTQKGNLLRHIKL [46F_47S_49E_50I_52G_53A_54D_55F_67L_, Q9UKT9]               0.281
3  FQCEVCGARFTQKGNLLRHIKL [46F_47Q_49E_50V_52G_53A_54R_55F_67L_, Q9UKT9]              -0.109
4  FKCEVCGARFTQKGNLLRHIKL [46F_47K_49E_50V_52G_53A_54R_55F_67L_, Q9UKT9]               -1.76

Inquiry: For the sequence FCCPQCGATFTQKGNLLRHIKL [46F_47C_49P_50Q_52G_53A_54T_55F_67L_, Q9UKT9] , report log2 fold change of degron read counts.
Reply text: -1.19

Inquiry: Read off the recorded log2 fold change of degron read counts for FHCNQCGRVFTQKGNLLRHIKL [46F_47H_49N_50Q_52G_53R_54V_55F_67L_, Q9UKT9]
Reply text: -1.76

Inquiry: Given FFCNVCGASFTQKGNLLRHIKL [46F_47F_49N_50V_52G_53A_54S_55F_67L_, Q9UKT9] , respond with its log2 fold change of degron read counts.
Reply text: 0.714

Inquiry: Give log2 fold change of degron read counts for FSCEICGAPFTQKGNLLRHIKL [46F_47S_49E_50I_52G_53A_54P_55F_67L_, Q9UKT9]
Reply text: 3.54

Inquiry: Please indicate log2 fold change of degron read counts recorded for FDCNQCGRCFTQKGNLLRHIKL [46F_47D_49N_50Q_52G_53R_54C_55F_67L_, Q9UKT9]
Reply text: -2.4

Inquiry: Please list log2 fold change of degron read counts recorded for the sequence FMCEVCGARFTQKGNLLRHIKL [46F_47M_49E_50V_52G_53A_54R_55F_67L_, Q9UKT9]
Reply text: 0.167

Inquiry: Return log2 fold change of degron read counts (reported value) for this sequence: FCCEQCGAPFTQKGNLLRHIKL [46F_47C_49E_50Q_52G_53A_54P_55F_67L_, Q9UKT9]
Reply text: -0.706

Inquiry: Indicate the recorded log2 fold change of degron read counts value for this sequence: FCCEICGAPFTQKGNLLRHIKL [46F_47C_49E_50I_52G_53A_54P_55F_67L_, Q9UKT9]
Reply text: 3.63
